# assay info: Pharmacokinetics of compounds 1–11 in rat plasma (UPLC-TQ/MS) after oral administration of HYD and plus-minus Haizao/Gancao decoctions
# Type: in vivo, Wistar rats (PTU-induced model of hypothyroidism)
# run conditions: Wistar, 11 mL/kg, group HYD-HZ (HYD minus Haizao), 11 mL/kg intragastrically, model rats, n = 6, mean ± S.D.
measurement kind: half-life (h)

- compound: "O=C1C[C@@H](c2ccc(O)cc2)Oc2cc(O)ccc21 [Compound 6, liquiritigenin]"
  measurement kind: "half-life"
  numeric value: 3.94

I = CC1(C)[C@@H](O)CC[C@]2(C)[C@H]3C(=O)C=C4[C@@H]5C[C@@](C)(C(=O)O)CC[C@]5(C)CC[C@@]4(C)[C@]3(C)CC[C@@H]12 [Compound 11, glycyrrhetinic acid]
II = O=C1C[C@@H](c2ccc(O[C@@H]3O[C@H](CO)[C@@H](O)[C@H](O)[C@H]3O)cc2)Oc2cc(O)ccc21 [Compound 1, liquiritin]
Pick one, I or II : lowest reported half-life. # respond with the chosen item's label
I

* * *

# assay info: Pharmacokinetics of compounds 1–11 in rat plasma (UPLC-TQ/MS) after oral administration of HYD and plus-minus Haizao/Gancao decoctions
# Format: in vivo, Wistar rats (PTU-induced model of hypothyroidism)
# run conditions: Wistar, 11 mL/kg, group HYD-HZ (HYD minus Haizao), 11 mL/kg intragastrically, model rats, n = 6, mean ± S.D.
# Procedure: Plasma samples (200 μL) and IS solution (50 μL, 1215 ng/mL for diphenhydramine, 476 ng/mL for chloromycetin) were added to an Eppendorf tube, and this mixture was extracted with methanol (550 μL) by shaking on a vortex-mixer for 2 min, and centrifuged for 10 min at 13,000 rpm. The contents were evaporated to dryness in a rotary evaporator at 37 °C. The residue was reconstituted in methanol (100 μL) and centrifuged (13,000 rpm for 10 min). […]
measurement kind: AUC(0-t) (ng·h/mL)

- structure: "O=C1C[C@@H](c2ccc(O[C@@H]3O[C@H](CO)[C@@H](O)[C@H](O)[C@H]3O)cc2)Oc2cc(O)ccc21"
  numeric value: 987
- structure: "COc1c2ccoc2cc2oc(=O)ccc12"
  numeric value: 649

a = CC1(C)[C@@H](O[C@H]2O[C@H](C(=O)O)[C@@H](O)[C@H](O)[C@H]2O[C@@H]2O[C@H](C(=O)O)[C@@H](O)[C@H](O)[C@H]2O)CC[C@]2(C)[C@H]3C(=O)C=C4[C@@H]5C[C@@](C)(C(=O)O)CC[C@]5(C)CC[C@@]4(C)[C@]3(C)CC[C@@H]12
b = CC1(C)[C@@H](O)CC[C@]2(C)[C@H]3C(=O)C=C4[C@@H]5C[C@@](C)(C(=O)O)CC[C@]5(C)CC[C@@]4(C)[C@]3(C)CC[C@@H]12
c = COc1ccc(-c2cc(=O)c3c(OC)c(OC)c(OC)c(OC)c3o2)cc1OC
Rank the 3 molecules: largest AUC(0-t) first, smallest last. Reply: labels, ordered per the request.
b, c, a
(b: 12700 ng·h/mL, c: 2290 ng·h/mL, a: 587 ng·h/mL)

* * *

# assay info: Pharmacokinetics of compounds 1–11 in rat plasma (UPLC-TQ/MS) after oral administration of HYD and plus-minus Haizao/Gancao decoctions
# Assay type: in vivo, Wistar rats (PTU-induced model of hypothyroidism)
# run conditions: Wistar, 1 mL/kg, group GC (extract of Gancao), 1 mL/kg intragastrically, model rats, n = 6, mean ± S.D.
measurement kind: half-life (h)

- compound: "O=C1C[C@@H](c2ccc(O)cc2)Oc2cc(O)ccc21 [Compound 6, liquiritigenin]"
  numeric value: 2.41
- compound: "CC1(C)[C@@H](O[C@H]2O[C@H](C(=O)O)[C@@H](O)[C@H](O)[C@H]2O[C@@H]2O[C@H](C(=O)O)[C@@H](O)[C@H](O)[C@H]2O)CC[C@]2(C)[C@H]3C(=O)C=C4[C@@H]5C[C@@](C)(C(=O)O)CC[C@]5(C)CC[C@@]4(C)[C@]3(C)CC[C@@H]12 [Compound 7, glycyrrhizic acid]"
  numeric value: 4.47

a = O=C1C[C@@H](c2ccc(O[C@@H]3O[C@H](CO)[C@@H](O)[C@H](O)[C@H]3O)cc2)Oc2cc(O)ccc21 [Compound 1, liquiritin]
b = CC1(C)[C@@H](O)CC[C@]2(C)[C@H]3C(=O)C=C4[C@@H]5C[C@@](C)(C(=O)O)CC[C@]5(C)CC[C@@]4(C)[C@]3(C)CC[C@@H]12 [Compound 11, glycyrrhetinic acid]
Hi, I'm comparing a with b and wondering which one has the bigger number for half-life. Any idea? # respond with the chosen item's label
b
(b: 4.66 h, a: 0.99 h)
